// data source = ChEMBL document CHEMBL4017498

System: Mus musculus
test summary: Reduction in NNK-induced long-term lung adenoma formation in A/J mouse at 25 ppm administered with AIN-M powder […] followed by NNK induction on day 7 at 100 mg/kg during compound dosing and […] post last dose measured after day 119 relative to control
Type: functional
Set-up: scale not given: the % may be the effect or the level left
reported endpoint: Activity (%)
Numbers only; they are read as %.

// known answers, use as guide
- compound: "COC1=CC(=O)OC(CCc2ccc3c(c2)OCO3)C1 (racemic)"
  observed: 94.2
- compound: "COC1=CC(=O)CC(CCc2ccc3c(c2)OCO3)C1 (centres undefined)"
  observed: 89.4
- compound: "COC1=CC(=O)OC(CCc2ccc3c(c2)CCC3)C1 (centres undefined)"
  observed: 10.1

Please find the next compound below.
COC1=CC(=O)OC(CCc2ccccc2)C1 (racemic) on Mus musculus gives Activity = 6.3

* * *

System: Mus musculus
test summary: Toxicity in NNK-induced long-term lung adenoma A/J mouse model assessed as effect on liver weight at 25 ppm administered with AIN-M powder for […] followed by NNK induction on day 7 at 100 mg/kg during compound dosing and […] post last dose measured after day 119 relative to body weight
Assay type: organism-based
run parameters: in vivo, po
reported endpoint: Activity

- compound: "COC1=CC(=O)CC(CCc2ccc3c(c2)OCO3)C1 (centres undefined)"
  reported endpoint: "Activity"
  observed: "Non-Toxic"
- compound: "COC1=CC(=O)OC(CCc2ccccc2)C1 (racemic)"
  reported endpoint: "Activity"
  observed: "Non-Toxic"
- compound: "COC1=CC(=O)OC(CCc2ccc3c(c2)OCO3)C1 (racemic)"
  reported endpoint: "Activity"
  observed: "Non-Toxic"
- compound: "COC1=CC(=O)OC(CCc2ccc3c(c2)CCC3)C1 (centres undefined)"
  reported endpoint: "Activity"
  observed: "Non-Toxic"
